Values compiled from patent US11547681B2.

protocol.summary: Intestinal S9 fraction stability, human
assay.setup: both, human, s9, Half-life (min), control compound, human intestinal S9 fraction
readout.kind: half-life (min)
A number alone suffices; assume min.

Query C[C@]12CC[C@H]3[C@@H](CCC4=CC(=O)CC[C@@]43C)[C@@H]1CC[C@@H]2O [Testosterone, testosterone, reference compound] yields half-life of 7.8

* * *

% Remaining of Initial, 60 min listing for selected compounds.
protocol.summary: in vitro
assay.setup: male, CD-1, mouse, microsomes, 1 h, 1 μM
A number alone suffices; assume %.

Sample records with % Remaining of Initial, 60 min:
>>> value_reported("CCCCCCCCCCCCCCCC(=O)NCCOC(=O)CCC(=O)OCC(COC(=O)CCCCCCC)OC(=O)CCCCCCC (stereo not shown) [Compound I-3, PEA-Succinate-Glycerol-Di-Caprylic]")
70
>>> value_reported("CC/C=C\\C/C=C\\C/C=C\\C/C=C\\C/C=C\\CCCC(=O)OCCNC(=O)CCCCCCCCCCCCCCC")
55

Field: next compound
Query CCCCC/C=C\C/C=C\CCCCCCCC(=O)OCCNC(=O)CCCCCCCCCCCCCCC yields % Remaining of Initial, 60 min of 61

* * *

protocol.summary: Intestinal S9 fraction stability, rat
assay.setup: male, Sprague-Dawley, rat, s9, Half-life (min), calculated value in parentheses, control compound, rat intestinal S9 fraction; calculated value beyond duration of experiment
Experimental: The reaction mixture, minus cofactors, was prepared as described below. The test article was added into the reaction mixture at a final concentration of 1 μM. […] Half-lives were calculated using GraphPad software, fitting to single-phase exponential decay equation. Reaction mixture, minus cofactors, was prepared as described below. […] Halflives were calculated using GraphPad software, fitting to a single-phase exponential decay equation. […]
readout.kind: half-life (h)
A number alone suffices; assume h.

Query C[C@]12CC[C@H]3[C@@H](CCC4=CC(=O)CC[C@@]43C)[C@@H]1CC[C@@H]2O [Testosterone, testosterone, reference compound] yields half-life of 1.77

* * *

protocol.summary: in vitro
assay.setup: both, human, 60 min, 1 μM
Concentration (μM) of analyte PEA, 60 min listing for selected compounds.
A number alone suffices; assume µM.

Sample records with Concentration (μM) of analyte PEA, 60 min:
>>> value_reported("CCCCCCCCCCCCCCCC(=O)NCCOC(=O)CCC(=O)OC[C@H]1O[C@@](CO)(O[C@H]2O[C@H](CO)[C@@H](O)[C@H](O)[C@H]2O)[C@@H](O)[C@@H]1O [Compound I-7]")
0.48
>>> value_reported("CCCCC/C=C\\C/C=C\\CCCCCCCC(=O)OCCNC(=O)CCCCCCCCCCCCCCC [Compound I-6]")
0.072

Query CCCCCCCCCCCCCCCC(=O)NCCOC(=O)CCC(=O)OCC(O)CO (stereo not shown) [Compound I-9] yields Concentration (μM) of analyte PEA, 60 min of 0.18

Query CCCCCCCCCCCCCCCC(=O)NCCOC(=O)CCC(=O)OCC(COC(=O)CCCCCCC)OC(=O)CCCCCCC (stereo not shown) [Compound I-3, PEA-Succinate-Glycerol-Di-Caprylic] yields Concentration (μM) of analyte PEA, 60 min of 0.048

Query CC/C=C\C/C=C\C/C=C\C/C=C\C/C=C\CCCC(=O)OCCNC(=O)CCCCCCCCCCCCCCC [Compound I-5] yields Concentration (μM) of analyte PEA, 60 min of 0.10

Query CCCCCCCCCCCCCCCC(=O)NCCOC(=O)CCC(=O)OCC(COC(=O)CCC)OC(=O)CCC (stereo not shown) [Compound I-11] yields Concentration (μM) of analyte PEA, 60 min of 0.18

Query CCCCCCCCCCCCCCCC(=O)NCCOC(=O)CCC [Compound I-2] yields Concentration (μM) of analyte PEA, 60 min of 0.11

* * *

protocol.summary: in vitro
assay.setup: male, Sprague-Dawley, rat, microsomes, 0.5 h, 1 μM
readout.kind: % Remaining of Initial, 30 min (%)
A number alone suffices; assume %.

Sample records with % Remaining of Initial, 30 min:
>>> value_reported("CC/C=C\\C/C=C\\C/C=C\\C/C=C\\C/C=C\\CCCC(=O)OCCNC(=O)CCCCCCCCCCCCCCC [Compound I-5]")
69
>>> value_reported("CCCCC/C=C\\C/C=C\\CCCCCCCC(=O)OCCNC(=O)CCCCCCCCCCCCCCC [Compound I-6]")
62
>>> value_reported("CCCCCCCCCCCCCCCC(=O)NCCOC(=O)CCC(=O)OCC(COC(=O)CCCCCCC)OC(=O)CCCCCCC (stereo not shown) [Compound I-3, PEA-Succinate-Glycerol-Di-Caprylic]")
72

Query CCCCCCCCCCCCCCCC(=O)NCCOC(=O)CCC(=O)OC[C@H]1O[C@@](CO)(O[C@H]2O[C@H](CO)[C@@H](O)[C@H](O)[C@H]2O)[C@@H](O)[C@@H]1O [Compound I-7] yields % Remaining of Initial, 30 min of 11

* * *

% Remaining of Initial (n = 1), 10 min listing for selected compounds.
protocol.summary: in vitro
assay.setup: both, human, s9, 10 min, 1 μM
A number alone suffices; assume %.

>>> value_reported("CCCCCCCCCCCCCCCC(=O)NCCOC(=O)CCC(=O)OCC(O)CO (stereo not shown) [Compound I-9]")
28

Query CC/C=C\C/C=C\C/C=C\C/C=C\C/C=C\CCCC(=O)OCCNC(=O)CCCCCCCCCCCCCCC [Compound I-5] yields % Remaining of Initial (n = 1), 10 min of 82

Query CCCCCCCCCCCCCCCC(=O)NCCOC(=O)CCC [Compound I-2] yields % Remaining of Initial (n = 1), 10 min of 73

Query CCCCCCCCCCCCCCCC(=O)NCCOC(=O)CCC(=O)OCC(COC(=O)CCCCCCC)OC(=O)CCCCCCC (stereo not shown) [Compound I-3, PEA-Succinate-Glycerol-Di-Caprylic] yields % Remaining of Initial (n = 1), 10 min of 76

Query CCCCCCCCCCCCCCCC(=O)NCCOC(=O)CCC(=O)OCC(COC(=O)CCC)OC(=O)CCC (stereo not shown) [Compound I-11] yields % Remaining of Initial (n = 1), 10 min of 4.1

Query CCCCCCCCCCCCCCCC(=O)NCCOC(=O)CCC(=O)OC[C@H]1O[C@@](CO)(O[C@H]2O[C@H](CO)[C@@H](O)[C@H](O)[C@H]2O)[C@@H](O)[C@@H]1O [Compound I-7] yields % Remaining of Initial (n = 1), 10 min of 46

Query CCCCC/C=C\C/C=C\CCCCCCCC(=O)OCCNC(=O)CCCCCCCCCCCCCCC [Compound I-6] yields % Remaining of Initial (n = 1), 10 min of 109

* * *

protocol.summary: in vitro
assay.setup: male, CD-1, mouse, 30 min, 1 μM
We label by threshold. Values of Measured concentration of analyte PEA, 30 min strictly beneath 0.1 µM are rule met. Values of 0.1 µM and up are rule not met.

q: Measured concentration of analyte PEA, 30 min under 0.1 µM? Item: CCCCCCCCCCCCCCCC(=O)NCCOC(=O)CCC(=O)OCC(O)CO (stereo not shown)
a: rule not met

* * *

protocol.summary: in vitro
assay.setup: both, human, s9, Half-life (min)
readout.kind: half-life at 1 μM

>>> value_reported("CC/C=C\\C/C=C\\C/C=C\\C/C=C\\C/C=C\\CCCC(=O)OCCNC(=O)CCCCCCCCCCCCCCC [Compound I-5]")
"> 1 h"

Query CCCCC/C=C\C/C=C\CCCCCCCC(=O)OCCNC(=O)CCCCCCCCCCCCCCC [Compound I-6] yields half-life at 1 μM of > 1 h

Query CCCCCCCCCCCCCCCC(=O)NCCOC(=O)CCC(=O)OCC(O)CO (stereo not shown) [Compound I-9] yields half-life at 1 μM of < 0.0167 h

Query CCCCCCCCCCCCCCCC(=O)NCCOC(=O)CCC(=O)OCC(COC(=O)CCCCCCC)OC(=O)CCCCCCC (stereo not shown) [Compound I-3, PEA-Succinate-Glycerol-Di-Caprylic] yields half-life at 1 μM of > 1 h

* * *

protocol.summary: in vitro
assay.setup: male, Sprague-Dawley, rat, 30 min, 1 μM
readout.kind: Concentration (μM) of analyte PEA, 30 min (µM)
A number alone suffices; assume µM.

Sample records with Concentration (μM) of analyte PEA, 30 min:
>>> value_reported("CCCCCCCCCCCCCCCC(=O)NCCOC(=O)CCC(=O)OCC(COC(=O)CCC)OC(=O)CCC (stereo not shown) [Compound I-11]")
0.35
>>> value_reported("CCCCCCCCCCCCCCCC(=O)NCCOC(=O)CCC(=O)OCC(O)CO (stereo not shown) [Compound I-9]")
0.36
>>> value_reported("CCCCCCCCCCCCCCCC(=O)NCCOC(=O)CCC [Compound I-2]")
0.52
>>> value_reported("CCCCCCCCCCCCCCCC(=O)NCCOC(=O)CCC(=O)OC[C@H]1O[C@@](CO)(O[C@H]2O[C@H](CO)[C@@H](O)[C@H](O)[C@H]2O)[C@@H](O)[C@@H]1O [Compound I-7]")
0.47
>>> value_reported("CCCCCCCCCCCCCCCC(=O)NCCOC(=O)CCC(=O)OCC(COC(=O)CCCCCCC)OC(=O)CCCCCCC (stereo not shown) [Compound I-3, PEA-Succinate-Glycerol-Di-Caprylic]")
0.047
>>> value_reported("CC/C=C\\C/C=C\\C/C=C\\C/C=C\\C/C=C\\CCCC(=O)OCCNC(=O)CCCCCCCCCCCCCCC [Compound I-5]")
0.11

Field: next compound
Query CCCCC/C=C\C/C=C\CCCCCCCC(=O)OCCNC(=O)CCCCCCCCCCCCCCC [Compound I-6] yields Concentration (μM) of analyte PEA, 30 min of 0.10
